These records show pIC50 for ErbB2 WT (Homo sapiens (Human)).
To interpret pIC50, take it as minus log10 of a concentration measured in moles per litre.

Cc1cc(Nc2ncnc3cnc(N4CCOCC4)nc23)ccc1Oc1ccc2c(c1)ncn2C [Example 9, 2,2,2-trifluoroacetate] = 7.19
O[C@H]1[C@@H]2C[C@H]1CN(c1ncc3ncnc(Nc4ccc(Oc5ccn6ncnc6c5)c(Cl)c4)c3n1)C2 = 6.89
Cc1cc(Nc2ncnc3cnc(N4C[C@@H]5CCCN5C4=O)nc23)ccc1Oc1ccc2c(c1)ncn2C = 6.94
COC1CC2(C1)CN(c1ncc3ncnc(Nc4ccc(Oc5ccc6c(c5)ncn6C)c(C)c4)c3n1)C2 = 7.15
Cc1cc(Nc2ncnc3cnc(N4CCO[C@@H](C)C4)nc23)ccc1Oc1ccc2c(c1)ncn2C.O=C(O)C(F)(F)F [Example 74, 2,2,2-trifluoroacetate] = 7.45

Q: Lab note: record pIC50 of Cc1c(Oc2ccc3c(c2)ncn3C)ccc(Nc2ncnc3cnc(N4CC[C@@H](O)C4)nc23)c1F tested on ErbB2 WT (Homo sapiens (Human)).
Sequence (P04626 23-1255): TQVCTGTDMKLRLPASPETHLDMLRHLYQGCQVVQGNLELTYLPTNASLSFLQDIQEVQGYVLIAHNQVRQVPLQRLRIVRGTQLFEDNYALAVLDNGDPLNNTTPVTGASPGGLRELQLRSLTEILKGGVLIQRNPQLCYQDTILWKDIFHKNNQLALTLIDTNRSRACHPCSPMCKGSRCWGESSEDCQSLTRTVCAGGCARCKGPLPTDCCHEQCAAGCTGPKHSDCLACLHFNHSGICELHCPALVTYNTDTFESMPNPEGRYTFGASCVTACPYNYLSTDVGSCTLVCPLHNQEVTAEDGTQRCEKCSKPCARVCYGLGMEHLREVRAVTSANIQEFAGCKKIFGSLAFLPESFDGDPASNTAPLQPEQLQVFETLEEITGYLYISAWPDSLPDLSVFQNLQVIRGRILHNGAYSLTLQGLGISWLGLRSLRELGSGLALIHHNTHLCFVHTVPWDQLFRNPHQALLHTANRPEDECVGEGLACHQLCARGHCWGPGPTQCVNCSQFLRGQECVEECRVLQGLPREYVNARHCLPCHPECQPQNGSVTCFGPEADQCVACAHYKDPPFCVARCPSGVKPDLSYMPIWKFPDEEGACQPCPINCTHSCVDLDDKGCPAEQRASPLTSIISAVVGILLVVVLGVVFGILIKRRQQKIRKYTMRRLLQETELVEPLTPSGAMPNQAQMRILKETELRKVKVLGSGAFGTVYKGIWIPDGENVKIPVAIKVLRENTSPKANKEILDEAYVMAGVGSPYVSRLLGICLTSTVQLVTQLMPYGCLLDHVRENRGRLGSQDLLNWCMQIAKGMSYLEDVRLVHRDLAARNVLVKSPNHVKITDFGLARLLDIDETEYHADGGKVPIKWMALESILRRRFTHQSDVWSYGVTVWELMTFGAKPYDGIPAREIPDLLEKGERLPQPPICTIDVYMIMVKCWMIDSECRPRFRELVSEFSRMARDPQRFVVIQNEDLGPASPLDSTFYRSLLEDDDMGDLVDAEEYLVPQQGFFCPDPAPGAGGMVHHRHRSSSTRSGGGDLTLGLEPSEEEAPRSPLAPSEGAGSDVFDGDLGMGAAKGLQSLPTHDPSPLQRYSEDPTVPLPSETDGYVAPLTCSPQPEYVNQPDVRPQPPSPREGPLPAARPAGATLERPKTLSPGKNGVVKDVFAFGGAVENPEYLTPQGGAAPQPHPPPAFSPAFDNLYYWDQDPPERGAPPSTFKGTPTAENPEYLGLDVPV
Result: 7.84

Q: Quote pIC50 with test system ErbB2 WT (Homo sapiens (Human)) for Cc1cc(Nc2ncnc3cnc(NC45CC(C4)C5)nc23)ccc1Oc1ccc2c(c1)ncn2C
Result: 6.78

Q: Lab note: ErbB2 WT (Homo sapiens (Human)) assay, enter pIC50 for O[C@@H]1CN(c2ncc3ncnc(Nc4ccc(Oc5ccn6ncnc6c5)c(Cl)c4)c3n2)CC1(F)F here
Result: 7.12

Q: # return pIC50 for Cn1cnc2cc(Oc3ccc(Nc4ncnc5cnc(N6CC7(CCOC7)C6)nc45)cc3Cl)ccc21 , test system: ErbB2 WT (Homo sapiens (Human))
Result: 6.74

Q: Give the observed pIC50 of Cc1cc(Nc2ncnc3cnc(N4C[C@@H](F)[C@@H](O)C4)nc23)ccc1Oc1ccc2c(c1)ncn2C for ErbB2 WT (Homo sapiens (Human)).
Result: 7.69

Q: Check ErbB2 WT (Homo sapiens (Human)) data and give pIC50 for Cc1cc(Nc2ncnc3cnc(N4CC[C@@]45CCOC5)nc23)ccc1Oc1ccc2c(c1)ncn2C (single isomer, unassigned) [Example 93a] .
Result: 7.80

Q: Recall the reported pIC50 of Cc1cc(Nc2ncnc3cnc(NC4=NC(C)(C)CO4)nc23)ccc1Oc1ccc2c(c1)ncn2C on ErbB2 WT (Homo sapiens (Human)) and write it down.
Result: 7.36

* * *

Assayed target: ErbB2 with Exon 20 YVMA insertion (HER2-YVMA) (Homo sapiens (Human), UniProt P04626, INS775YVMA)
Sequence (P04626 other isoform, or with tags, fused parts or gaps ins YVMA behind 775): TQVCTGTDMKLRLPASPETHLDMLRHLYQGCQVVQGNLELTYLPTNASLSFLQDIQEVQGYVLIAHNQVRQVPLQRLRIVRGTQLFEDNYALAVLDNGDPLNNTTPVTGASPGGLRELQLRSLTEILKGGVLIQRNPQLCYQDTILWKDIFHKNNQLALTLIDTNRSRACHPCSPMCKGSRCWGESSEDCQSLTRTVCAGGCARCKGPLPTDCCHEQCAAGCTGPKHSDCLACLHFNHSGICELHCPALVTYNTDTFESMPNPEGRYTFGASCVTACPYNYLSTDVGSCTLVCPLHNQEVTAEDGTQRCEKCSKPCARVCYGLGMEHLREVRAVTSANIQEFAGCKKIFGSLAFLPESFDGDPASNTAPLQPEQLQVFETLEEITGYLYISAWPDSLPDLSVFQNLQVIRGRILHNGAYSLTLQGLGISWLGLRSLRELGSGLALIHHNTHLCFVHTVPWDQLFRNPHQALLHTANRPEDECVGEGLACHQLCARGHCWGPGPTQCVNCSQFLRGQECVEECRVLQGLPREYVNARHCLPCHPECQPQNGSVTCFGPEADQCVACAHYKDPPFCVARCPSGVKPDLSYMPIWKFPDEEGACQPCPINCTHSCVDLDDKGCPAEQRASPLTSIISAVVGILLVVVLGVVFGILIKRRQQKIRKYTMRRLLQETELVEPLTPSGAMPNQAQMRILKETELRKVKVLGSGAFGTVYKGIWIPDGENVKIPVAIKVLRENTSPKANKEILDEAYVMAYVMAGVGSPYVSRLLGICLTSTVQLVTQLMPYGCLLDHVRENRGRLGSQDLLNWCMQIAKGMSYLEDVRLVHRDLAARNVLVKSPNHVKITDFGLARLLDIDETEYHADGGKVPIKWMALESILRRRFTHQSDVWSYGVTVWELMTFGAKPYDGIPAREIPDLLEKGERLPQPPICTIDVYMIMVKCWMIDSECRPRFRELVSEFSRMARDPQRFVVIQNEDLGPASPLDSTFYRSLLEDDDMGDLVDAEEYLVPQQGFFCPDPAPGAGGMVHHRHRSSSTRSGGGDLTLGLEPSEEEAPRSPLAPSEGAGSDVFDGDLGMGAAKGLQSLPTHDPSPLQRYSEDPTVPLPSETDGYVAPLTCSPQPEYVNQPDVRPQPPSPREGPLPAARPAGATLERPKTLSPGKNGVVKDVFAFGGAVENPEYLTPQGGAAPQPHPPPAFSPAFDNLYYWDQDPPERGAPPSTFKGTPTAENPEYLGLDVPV
Protocol: Cellular phosphorylation assay, constitutive ErbB2 phosphorylation (Y1196) in engineered NIH 3T3 cells, Assay 4
Type: cell-based
Metric: IC50 (nM)
# unit: nM | format: bare number

Reference set, count: 4
CC(=O)N1CC2CC(C1)N2c1ncc2ncnc(Nc3ccc(Oc4ccc5c(c4)ncn5C)c(C)c3)c2n1 [Example 23] = 717
Cc1cc(Nc2ncnc3cnc(N4CC5(CCOC5)C4)nc23)ccc1Oc1ccn2ncnc2c1 [Example 373] = 2480
COC[C@H](O)CN(C)c1ncc2ncnc(Nc3ccc(Oc4ccc5c(c4)ncn5C)c(C)c3)c2n1 (racemic) [Example 100] = 21.1
Cn1cnc2cc(Oc3ccc(Nc4ncnc5cnc(N6C[C@@H]7C[C@H]6CO7)nc45)cc3Cl)ccc21 [Example 440] = 58.2

Q: Output IC50 of Cc1cc(Nc2ncnc3cnc(N4CCN(C)C4=O)nc23)ccc1Oc1ccc2c(c1)ncn2C [Example 28]
Result: 24.8

Q: Please list IC50 recorded for the compound CC(=O)N1CCN(c2ncc3ncnc(Nc4ccc(Oc5ccc6c(c5)ncn6C)c(C)c4)c3n2)CC1 [Example 24]
Result: 7.1

Q: Answer with the recorded IC50 for the compound listed here: CC(=O)O[C@H]1CN(c2ncc3ncnc(Nc4ccc(Oc5ccc6c(c5)ncn6C)c(C)c4)c3n2)C[C@H]1F [Example 90]
Result: 29

Q: Complete the entry with IC50 for Cc1cc(Nc2ncnc3cnc(N4CCOCC4)nc23)ccc1Oc1ccc2csnc2c1 [Example 243]
Result: 173
